Data origin, for the record: patent US5068325A

Target: dopamine D2-receptors (Rattus norvegicus, UniProt P61169)
Sequence (P61169 whole entry): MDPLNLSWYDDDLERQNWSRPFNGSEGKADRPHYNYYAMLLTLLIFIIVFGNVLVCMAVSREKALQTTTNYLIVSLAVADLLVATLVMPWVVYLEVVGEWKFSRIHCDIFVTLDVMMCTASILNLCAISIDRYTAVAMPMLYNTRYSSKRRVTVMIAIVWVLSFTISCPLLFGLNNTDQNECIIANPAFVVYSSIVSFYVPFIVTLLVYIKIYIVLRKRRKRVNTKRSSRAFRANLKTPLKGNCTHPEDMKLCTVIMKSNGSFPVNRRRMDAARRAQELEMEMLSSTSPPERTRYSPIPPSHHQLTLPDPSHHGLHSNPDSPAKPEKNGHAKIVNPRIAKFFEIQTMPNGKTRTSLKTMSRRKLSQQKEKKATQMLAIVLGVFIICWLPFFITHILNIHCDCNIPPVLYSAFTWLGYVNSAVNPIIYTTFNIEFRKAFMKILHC
Assay: affinity for dopamine D2-receptors by displacement experiments with [3H]-spiperone (rat striatum membranes)
Assay type: binding
Conditions: relative affinity for dopamine-D2 receptors compared with α2-adrenoceptors; the higher, the higher the D2/α2 selectivity
From the text: 1Determining the affinity for dopamine D2-receptors by displacement experiments with [^3 H]-spiperone (Modified Method of W. Billard et al., Life Sci. 35, 1885 (1984) and D. J. de Vries and P. M. Beart, Eur. J. Pharmacol. 109, 417 (1985)) Male rats (of the Chbb:Thom strain weighing about 200 g) were killed by a blow to the back of the neck. The brains were removed and dissected on ice. […]
Test readout: α2-IC50 / D2-Ki

[[record]]
compound = "Cc1nc(C=CCN2CCc3nc(N)sc3CC2)cs1"
test_readout = "α2-IC50 / D2-Ki"
experimental_value = 79

[[record]]
compound = "Nc1nc2c(s1)CCN(CC=Cc1ccc(-c3ccccc3)cc1)CC2"
test_readout = "α2-IC50 / D2-Ki"
experimental_value = 733

[[record]]
compound = "Nc1nc2c(s1)CCN(CC=Cc1ccccc1-c1ccccc1)CC2"
test_readout = "α2-IC50 / D2-Ki"
experimental_value = 287

[[record]]
compound = "C=CCN1CCc2nc(N)sc2CC1 [Compound A, reference compound]"
test_readout = "α2-IC50 / D2-Ki"
experimental_value = 4.8

[[record]]
compound = "CC(C)COc1ccc(C=CCN2CCc3nc(N)sc3CC2)cc1"
test_readout = "α2-IC50 / D2-Ki"
experimental_value = 133

